Here the recorded IC50 is given for each entry.
- Organism: Bos taurus
- measurement notes: Competitive inhibition against [3H]dopamine uptake in bovine striatal tissue
- Assay type: functional, Striatum
- measurement setup: Bos taurus, Striatum
Supply the numeric figure in µM, leaving out any unit text.

[[record]]
compound = "COC(=O)C1C(c2ccc([N+](=O)[O-])cc2[N+](=O)[O-])CC2CCC1N2C (racemic)"
endpoint_unit = "µM"
observed_measurement = 30


Next compound, IC50 to be filled in.
Exercise: Dear colleague, I am looking for the recorded IC50 of the following compound: COC(=O)C1C(c2ccc(N)cc2)CC2CCC1N2C (configuration not stated)
Solution: 0.557

* * *

Recorded below: IC50, system UniProt P27922.
Sequence (P27922 whole entry): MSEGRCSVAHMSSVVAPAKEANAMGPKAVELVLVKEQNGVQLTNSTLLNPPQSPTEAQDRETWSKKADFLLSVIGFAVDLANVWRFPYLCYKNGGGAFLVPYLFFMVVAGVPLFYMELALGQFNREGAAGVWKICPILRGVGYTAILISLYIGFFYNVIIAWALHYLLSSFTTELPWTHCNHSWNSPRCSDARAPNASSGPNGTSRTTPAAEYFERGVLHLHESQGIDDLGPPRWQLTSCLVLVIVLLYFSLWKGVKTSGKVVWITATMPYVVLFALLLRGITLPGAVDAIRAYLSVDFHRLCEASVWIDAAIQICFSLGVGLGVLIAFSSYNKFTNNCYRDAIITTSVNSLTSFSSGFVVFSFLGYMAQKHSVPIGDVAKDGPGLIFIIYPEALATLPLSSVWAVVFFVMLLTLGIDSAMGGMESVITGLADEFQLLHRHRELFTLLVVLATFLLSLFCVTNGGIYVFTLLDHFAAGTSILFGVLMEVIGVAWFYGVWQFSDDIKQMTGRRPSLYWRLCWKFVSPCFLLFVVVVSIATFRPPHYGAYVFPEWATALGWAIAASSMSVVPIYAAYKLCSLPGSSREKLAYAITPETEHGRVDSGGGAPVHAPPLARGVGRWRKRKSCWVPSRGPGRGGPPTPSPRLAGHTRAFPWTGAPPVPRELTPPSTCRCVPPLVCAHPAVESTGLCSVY
The response must be a number in nM with no trailing unit.

Some solved entries appear below for comparison.
[[record]]
compound = "COC(=O)[C@@H]1C2CC[C@H](C[C@@H]1c1ccccc1)N2C (mixture of isomers; form 2)"
target_of_assay = "UniProt P27922"
observed_measurement = 1200

[[record]]
compound = "COC(=O)[C@@H]1C2CC[C@H](C[C@@H]1c1ccccc1)N2C (mixture of isomers; form 1)"
target_of_assay = "UniProt P27922"
observed_measurement = 22

[[record]]
compound = "COC(=O)C1C(c2ccc(N)cc2)CC2CCC1N2C (centres undefined)"
target_of_assay = "UniProt P27922"
observed_measurement = 192


Exercise: Reported IC50 for COC(=O)C1C(c2ccc([N+](=O)[O-])cc2[N+](=O)[O-])CC2CCC1N2C (racemic) : what is it?
Solution: 11000
